tested on: glioblastoma U-87 MG cells transduced with HSV1-TK (human Herpes simplex virus type 1 thymidine kinase); experiment: Cell proliferation (XTT), sensitivity to AZT; type: cell-based; conditions: 120 h, transient polyclonal cell lines, 5 days of drug exposure
measured parameter: IC50

stdin: // returns reported IC50 for input `Cc1cn([C@H]2C[C@H](N=[N+]=[N-])[C@@H](CO)O2)c(=O)[nH]c1=O`
stdout: > 5 mM

* * *

system: Glioblastoma U-87 MG; test: Cell proliferation assay (XTT), sensitivity to AZT of transduced cells; format: cell-based; conditions: Homo sapiens, parental U-87 MG, construct None, listed under transient polyclonal cell lines
measured parameter: pIC50
Please report pIC50 as the negative decimal logarithm of the molar concentration, giving only the number.

stdin: Record request: pIC50 value, item `Cc1cn([C@H]2C[C@H](N=[N+]=[N-])[C@@H](CO)O2)c(=O)[nH]c1=O`
stdout: 2.35
